# IC50 per record follows
target: Proto-oncogene tyrosine-protein kinase Src (Gallus gallus); assay: Inhibition of p60 c-Src tyrosine kinase mediated phosphorylation of Fak in IC8.1 fibroblasts; format: functional
Please reply with the bare figure in nM and do not write the unit itself.

These solved cases illustrate the format of a correct answer.
COc1cccc(-c2cn(C3CCC3)c3ncnc(N)c23)c1 ... 600
Nc1ncnc2c1c(-c1ccc(O)cc1)cn2C1CCCC1 ... 300
COc1ccc(CC(CO)n2cc(-c3cccc(O)c3)c3c(N)ncnc32)cc1 (stereo unspecified) ... 400
Nc1ncnc2c1c(-c1ccc(O)cc1)cn2C1CCC1 ... 1500
COc1cccc(-c2cn(C3CC(C(=O)NCCO)C3)c3ncnc(N)c23)c1 (stereo unspecified) ... 4000

Quote IC50 reported for COc1cccc(-c2cn(C3CC(CNCCO)C3)c3ncnc(N)c23)c1 (stereo unspecified) please.
300

====

target: Tyrosine-protein kinase ABL (Homo sapiens, UniProt P00519+P42684)
IC50 under 100 nM gets T, anything at or over 100 nM gets F.

Check out these entries, answers already filled in.
Nc1ncnc2c1c(-c1ccccc1)cn2C1CCC1 ... T
Nc1ncnc2c1c(-c1cccc(O)c1)cn2C1CCC1 ... T
Nc1ncnc2c1c(-c1ccc(O)cc1)cn2C1CCCC1 ... F

Hello, is IC50 of the following molecule strictly smaller than 100 nM? COc1cccc(-c2cn(C3CC(C(=O)NCCO)C3)c3ncnc(N)c23)c1 (configuration not stated)
F

Does this molecule meet the criterion IC50 < 100 nM? Nc1ncnc2c1c(-c1ccc(O)cc1)cn2C1CCC1
T

Problem: For the molecule Nc1ncnc2c1c(-c1ccccc1)cn2C1CCCC1 , is IC50 under 100 nM?
F

Problem: For the molecule Nc1ncnc2c1c(-c1ccccc1)cn2C1CC(O)C1 (configuration not stated) , is IC50 under 100 nM?
F

Bench note: check whether COc1ccc(CC(CO)n2cc(-c3cccc(O)c3)c3c(N)ncnc32)cc1 (configuration not stated) shows IC50 below 100 nM
F

====

log10 IC50 listing for selected compounds.
biological target: Proto-oncogene tyrosine-protein kinase Src (Gallus gallus, UniProt P00523); test: Inhibition of p60 c-Src tyrosine kinase activity
Kindly note that the scale is log10 and the underlying IC50 is in nM.

Examples with their reported log10 IC50 follow.
Nc1ncnc2c1c(-c1ccccc1)cn2C(CO)Cc1ccc(O)cc1 (configuration not stated) ... 3.28
Nc1ncnc2c1c(-c1ccc(O)cc1)cn2C1CCCC1 ... 1.30
COc1ccc(-c2cn(C3CCC3)c3ncnc(N)c23)cc1 ... 2.30
Nc1ncnc2c1c(-c1ccccc1)cn2C1CCC(O)C1 (configuration not stated) ... 1.70
Nc1ncnc2c1c(-c1ccccc1)cn2C1CC(O)C1 (configuration not stated) ... 1.30
COc1cccc(-c2cn(C3CC(CO)C3)c3ncnc(N)c23)c1 (configuration not stated) ... 1.48
Nc1ncnc2c1c(-c1ccccc1)cn2[C@@H](CO)c1ccccc1 ... 2.68
COc1ccc(-c2cn(C3CCCC3)c3ncnc(N)c23)cc1 ... 1.90

Fill in log10 IC50 for record COc1cccc(-c2cn(C3CC(CNCCO)C3)c3ncnc(N)c23)c1 (configuration not stated)
1.30

Return the recorded log10 IC50 value; entry: COc1ccc(CC(CO)n2cc(-c3cccc(OC)c3)c3c(N)ncnc32)cc1 (configuration not stated)
3.00

Kindly indicate its recorded log10 IC50. Item: Nc1ncnc2c1c(-c1cccc(O)c1)cn2C1CCC1
0.60

Name the recorded log10 IC50 of the item Nc1ncnc2c1c(-c1ccccc1)cn2C(CO)CCc1ccccc1 (configuration not stated) in your answer.
3.60

For the compound COc1cccc(-c2cn(C3CCC3)c3ncnc(N)c23)c1 , report log10 IC50.
1.60

Supply measured log10 IC50 of COc1ccc(CC(CO)n2cc(-c3cccc(O)c3)c3c(N)ncnc32)cc1 (configuration not stated) in your reply.
1.62

In one line, give reported log10 IC50 of the entry COc1cccc(-c2cn(C3CC(C(=O)NCCO)C3)c3ncnc(N)c23)c1 (configuration not stated) .
1.30

Fill in reported log10 IC50 for this entry: COc1cccc(-c2cn(C3CCCC3)c3ncnc(N)c23)c1
0.30

Identify measured log10 IC50 associated with Nc1ncnc2c1c(-c1cccc(O)c1)cn2C1CCCC1
0.00

Determine from records and report log10 IC50 for Nc1ncnc2c1c(-c1ccccc1)cn2C1CCCC1
2.15

Give recorded log10 IC50. Nc1ncnc2c1c(-c1ccccc1)cn2C1CCC1
2.04

# return recorded log10 IC50 for input Nc1ncnc2c1c(-c1ccc(O)cc1)cn2C1CCC1
1.00

Provide log10 IC50 value for the following compound: Nc1ncnc2c1c(-c1ccccc1)cn2C(CO)Cc1ccccc1 (configuration not stated)
2.78
